- test.target: human recombinant GCL (Homo sapiens (Human), UniProt P48506)
- Sequence (P48506 whole entry): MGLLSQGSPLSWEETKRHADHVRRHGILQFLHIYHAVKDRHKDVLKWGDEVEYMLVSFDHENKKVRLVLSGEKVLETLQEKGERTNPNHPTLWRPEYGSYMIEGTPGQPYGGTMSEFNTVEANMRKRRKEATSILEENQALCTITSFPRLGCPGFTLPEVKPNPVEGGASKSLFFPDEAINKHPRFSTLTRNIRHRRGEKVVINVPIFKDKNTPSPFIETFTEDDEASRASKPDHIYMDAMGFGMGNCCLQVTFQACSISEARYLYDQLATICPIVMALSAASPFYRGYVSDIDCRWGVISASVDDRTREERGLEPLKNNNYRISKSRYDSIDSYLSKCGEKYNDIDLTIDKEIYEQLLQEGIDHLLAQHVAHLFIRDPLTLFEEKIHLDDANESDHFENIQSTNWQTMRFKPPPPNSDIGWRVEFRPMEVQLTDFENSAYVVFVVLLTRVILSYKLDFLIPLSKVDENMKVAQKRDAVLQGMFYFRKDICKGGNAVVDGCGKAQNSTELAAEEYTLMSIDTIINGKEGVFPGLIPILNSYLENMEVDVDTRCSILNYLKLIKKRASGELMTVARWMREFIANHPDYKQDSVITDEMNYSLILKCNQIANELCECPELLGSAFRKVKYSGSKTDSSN
- run.description: GCL enzyme profiling assay (ADP-Glo luminescence)
- Type: biochemical
- conditions.used: human recombinant GCL, ADP-Glo; read-out: GCL IC50
Parameter IC50: see the listing below.
assay.readout: IC50

                                    compound                               test_target  assay_readout       observed
 0  N=S(=O)(CC[C@H](N)C(=O)O)CCC1(O)CC(F)(F)C1 (stereo partly shown)  human recombinant GCL (Homo sapiens (Human), UniProt P48506)           IC50  20 to 2000 µM
 1  N=S(=O)(CC[C@H](N)C(=O)O)CCC1(n2ncc(-c3ccccn3)n2)CCC1 (stereo partly shown)  human recombinant GCL (Homo sapiens (Human), UniProt P48506)           IC50  20 to 2000 µM
 2  COc1cc(OC(F)(F)F)ccc1-c1ccc(C(O)(CCS(=N)(=O)CC[C@H](N)C(=O)O)C(F)(F)F)cc1 (stereo partly shown)  human recombinant GCL (Homo sapiens (Human), UniProt P48506)           IC50        ≤ 20 µM
 3  N=S(=O)(CC[C@H](N)C(=O)O)CCC(O)(c1ccc(-c2ccc(Cl)cc2Cl)cc1F)C(F)(F)F (stereo partly shown)  human recombinant GCL (Homo sapiens (Human), UniProt P48506)           IC50        ≤ 20 µM
 4  C[C@@](O)(CCS(=N)(=O)CC[C@H](N)C(=O)O)C(F)(F)F (single isomer, unassigned) [Compound 322]  human recombinant GCL (Homo sapiens (Human), UniProt P48506)           IC50        ≤ 20 µM
 5  N=S(=O)(CC[C@H](N)C(=O)O)CCC(O)(c1ccnc(C(F)(F)F)c1)C(F)(F)F (stereo partly shown)  human recombinant GCL (Homo sapiens (Human), UniProt P48506)           IC50  20 to 2000 µM
 6  N=S(=O)(CC[C@H](N)C(=O)O)CCC(O)(C1[C@@H](c2ccccc2)[C@H]1c1ccccc1)C(F)(F)F (stereo partly shown)  human recombinant GCL (Homo sapiens (Human), UniProt P48506)           IC50  20 to 2000 µM
 7  Cc1ccc(-c2ccc(C(O)(CCS(=N)(=O)CC[C@H](N)C(=O)O)C(F)(F)F)cc2C#N)cc1 (stereo partly shown)  human recombinant GCL (Homo sapiens (Human), UniProt P48506)           IC50        ≤ 20 µM
 8  N=S(=O)(CC[C@H](N)C(=O)O)CCC(O)(c1ncc(-c2ccccc2)[nH]1)C(F)(F)F (stereo partly shown)  human recombinant GCL (Homo sapiens (Human), UniProt P48506)           IC50        ≤ 20 µM
 9  N=[S@@](=O)(CC[C@H](N)C(=O)O)CCC1(c2ccccc2)CCC1 (single isomer, unassigned)  human recombinant GCL (Homo sapiens (Human), UniProt P48506)           IC50        ≤ 20 µM
10  N[C@@H](CCS(=O)(=O)CCC(O)(c1ccon1)C(F)(F)F)C(=O)O (stereo partly shown)  human recombinant GCL (Homo sapiens (Human), UniProt P48506)           IC50  20 to 2000 µM
11  CCCCS(=N)(=O)CC[C@H](N)C(=O)OC(C)(C)C (stereo partly shown)  human recombinant GCL (Homo sapiens (Human), UniProt P48506)           IC50  20 to 2000 µM
12  N=S(=O)(CCC(n1ccc(-c2ccccn2)n1)C(F)(F)F)CC[C@H](N)C(=O)O (stereo partly shown)  human recombinant GCL (Homo sapiens (Human), UniProt P48506)           IC50  20 to 2000 µM
13  N=S(=O)(CC[C@H](N)C(=O)O)CCC1(c2cccc(F)c2)CCC1 (stereo partly shown)  human recombinant GCL (Homo sapiens (Human), UniProt P48506)           IC50  20 to 2000 µM
14  N=S(=O)(CCC(n1ccc(-c2ccccc2)n1)C(F)(F)F)CC[C@H](N)C(=O)O (stereo partly shown)  human recombinant GCL (Homo sapiens (Human), UniProt P48506)           IC50        ≤ 20 µM
15  N=S(=O)(CCC(c1ccc(-c2cncc(C(F)(F)F)c2)cc1)C(F)(F)F)CC[C@H](N)C(=O)O (stereo partly shown)  human recombinant GCL (Homo sapiens (Human), UniProt P48506)           IC50        ≤ 20 µM
16  N=[S@@](=O)(CC[C@H](N)C(=O)O)CCC1(c2ccccn2)CCC1  human recombinant GCL (Homo sapiens (Human), UniProt P48506)           IC50  20 to 2000 µM
17  CCOC(=O)[C@@H](N)CC[S@@](=N)(=O)CC[C@](O)(c1ccccc1)C(F)(F)F  human recombinant GCL (Homo sapiens (Human), UniProt P48506)           IC50  20 to 2000 µM
18  COc1ccccc1C(CCS(=N)(=O)CC[C@H](N)C(=O)O)C(F)(F)F (stereo partly shown)  human recombinant GCL (Homo sapiens (Human), UniProt P48506)           IC50        ≤ 20 µM
19  N=S(=O)(CC[C@H](N)C(=O)O)CCC(O)(c1ccc(-c2ccc(C(F)(F)F)cc2Cl)cc1)C(F)(F)F (stereo partly shown)  human recombinant GCL (Homo sapiens (Human), UniProt P48506)           IC50  20 to 2000 µM
20  N=S(=O)(CCC(c1ccc(-c2ccc(Cl)c(C(F)(F)F)c2)cc1)C(F)(F)F)CC[C@H](N)C(=O)O (stereo partly shown)  human recombinant GCL (Homo sapiens (Human), UniProt P48506)           IC50        ≤ 20 µM
21  N=S(=O)(CC[C@H](N)C(=O)O)CCC(O)(c1ccc(-c2ccccc2)cn1)C(F)(F)F (stereo partly shown)  human recombinant GCL (Homo sapiens (Human), UniProt P48506)           IC50        ≤ 20 µM
22  N=[S@@](=O)(CC[C@H](N)C(=O)O)CC[C@@](O)(c1ccccc1)C(F)(F)F  human recombinant GCL (Homo sapiens (Human), UniProt P48506)           IC50        ≤ 20 µM
23  CC(C)C(O)(CCS(=N)(=O)CC[C@H](N)C(=O)O)C(F)(F)F (stereo partly shown)  human recombinant GCL (Homo sapiens (Human), UniProt P48506)           IC50        ≤ 20 µM
24  CC(C)(C)OC(=O)[C@@H](N)CC[S@@](=N)(=O)CC[C@H](O)C(F)(F)F  human recombinant GCL (Homo sapiens (Human), UniProt P48506)           IC50      > 2000 µM
25  CC(=O)Nc1ccc(C(O)(CCS(=N)(=O)CC[C@H](N)C(=O)O)C(F)(F)F)cc1 (stereo partly shown)  human recombinant GCL (Homo sapiens (Human), UniProt P48506)           IC50  20 to 2000 µM
26  N[C@@H](CCS(=O)(=O)NCC(O)(c1ccc(-c2ccc(Cl)cc2Cl)cn1)C(F)(F)F)C(=O)O (stereo partly shown)  human recombinant GCL (Homo sapiens (Human), UniProt P48506)           IC50        ≤ 20 µM
27  Cc1ccn(C(CCS(=N)(=O)CC[C@H](N)C(=O)O)C(F)(F)F)n1 (stereo partly shown)  human recombinant GCL (Homo sapiens (Human), UniProt P48506)           IC50  20 to 2000 µM
28  C[C@@](O)(CCS(=N)(=O)CC[C@H](N)C(=O)O)C(F)(F)F (single isomer, unassigned) [Compound 323]  human recombinant GCL (Homo sapiens (Human), UniProt P48506)           IC50      > 2000 µM
29  N=S(=O)(CC[C@H](N)C(=O)O)CCC(O)(C1CC1)C(F)(F)F (stereo partly shown)  human recombinant GCL (Homo sapiens (Human), UniProt P48506)           IC50  20 to 2000 µM
30  N[C@@H](CCS(=O)(=O)CCC1(C(F)(F)F)OC(=O)c2ccccc21)C(=O)O (stereo partly shown)  human recombinant GCL (Homo sapiens (Human), UniProt P48506)           IC50      > 2000 µM
